- System: RXRa homodimer (NR concentration 180 nM)
- PROCEDURE_SUMMARY: PBM binding z-score (relative to random genomic background probes); higher = stronger binding; sequences stand for … in GC…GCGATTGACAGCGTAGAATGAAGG
Each entry below lists one item and its recorded PBM binding z-score value.
MEASURED_PARAMETER: PBM binding z-score

- CGTCCAAGGTCAGCAGGTTAGTGAAAGCGACGTG: 4.17
- CCTACTGGGCCAAGATCATTGATCAGTCAAAGCA: -0.589
- CCTACTGGGCCACGAAAGTTCATTGATTCAGTGA: 1.46
- CGAACTAGGTCATTGAGAGGACAGTGAATAGTAA: 3.22
- AATATAGGGTCACTAGGCCAGAGTAGGTACGAAT: 5.71
- GTACCAAGGTGAATAGGTCGATGATGAGTAGGCG: 1.86
- CCTACTGGGCCATTCAGAGGTCATTGAACATATG: 4.17
- CTCGAAAGGTCGTGCTCAGGTGATTATACCAAAC: 4.89
- ATCTCTAGGTAAAGTTCAGTAAAAGATCGATAGA: 1.18
- TCATATAGGTAAAAGGTGAAAGCCGGTGTGGTAA: 2.92
- TCGAGTAGGTTAGTCGGGGAATTCAGCCAACATA: -0.255
- TCTATCAGTTGATTAGGGCAACCGAAACAGCGGA: 0.276
- TCATATAGGTAAAAGGTGAAGGTCGGTGTGGTAA: 3.05
- TAGCCTAGGGCAGATCGGGCCAGTATACGCTATA: -0.16
- CGTCCAAGGTCAAGGTCAGTGACAGAGACTCGAA: 6.77
- TGTCGGAGGACACGAAGGTCAGAGCTTTCCAGAG: 1.8
- CATACAGGGTCAGCTAGGCCGGAGTAGGGACGGC: 3.93
- TCTTGTAGATCAATAGGAGGTTAAGAAAGATCGA: 0.992
- TCCAGTTGGTCACGGAGGTCACACACGACGGGTA: 4.8
- ATCGAAAGGTCGACGAGGTGAGTATCCACCGTTT: 4.38
- GCTTACGGGTCAAAGGTTATCGCATGAATAGAAT: 9.64
- CCTATTAGTTGACCATAAGGCCAACCGAAGCTCG: 0.779
- CCTACTGGGCCACGAAAGGTCATTGACTCAGTGA: 4.92
- TGTGCTAGGTCAGTTGGTCAGCTAACGAGCTGCC: 0.793
- CCTAGAAGGCCAATCTGGGTCACTCAAGGCTTGA: 1.55
- CGAACTAGGTCAGAACAGGCCAGTGAAGGATGAT: 1.28

====

- Test system: PPARg:RXRa (NR concentration 180 nM, RXRa partner concentration 90 nM)
- PROCEDURE_SUMMARY: PBM binding z-score (relative to random genomic background probes); higher = stronger binding; sequences stand for … in GC…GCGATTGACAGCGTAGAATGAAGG
// PBM binding z-score lookup, one value per entry
MEASURED_PARAMETER: PBM binding z-score

* CCTACTGGGCCACGAAAGGACATTGATTCAGTGA | 1.63
* GGAACGAGGGCAAAGTTGATTGCATCTGTCGACG | 6.23
* TCGAGTAGGTTACCAATGGGGCATTCGGCTTTCT | 0.00688
* GCAGACCGGTGAAACGCAGGTAACTCAGGGTGGC | -0.0428
* ATATGTAGGTTACATCCGCGTCATTCAGGCTATG | 4.94
* AGTCAAAGTTCACTAGGTAAAGTAAGATTCAGCT | 7.12

Each recorded value in this set is attributed to the supplement of paper PMC6555819.
